Entry source: ChEMBL document CHEMBL5058577

- Tested on: Fibroblast
- Assay overview: Multiplex assay against human fibroblast
- Format: toxicity, cell-based
- Experimental setup: 12 h, 1 µM, compound concentration 1 uM, replicate 1
Metric: Population Mitotic Cells (%)

Molecule: CCCOc1ccc2[nH]cc(C3=CCNCC3)c2n1.Cl
Metric: Population Mitotic Cells (%)
Numeric value: 57
//
Molecule: CC(/C=C1\SC(=S)N(CCCC(=O)Nc2ccc(C(=O)O)c(O)c2)C1=O)=C\c1ccccc1
Metric: Population Mitotic Cells (%)
Numeric value: 50
//
Molecule: Cc1cccc(NC(=O)CN2CCC(c3ccccn3)CC2)c1.Cl.Cl
Metric: Population Mitotic Cells (%)
Numeric value: 52
//
Molecule: O=C(CCCc1ccccc1)Nc1nc2ccccc2c(=O)s1
Metric: Population Mitotic Cells (%)
Numeric value: 41
//
Molecule: CC(C)c1noc(N2CCC(COc3ccc(-c4ccc(S(C)(=O)=O)cc4)nc3)CC2)n1
Metric: Population Mitotic Cells (%)
Numeric value: 61
//
Molecule: Cc1sc2c(c1C)C(c1ccc(Cl)cc1)=N[C@@H](CC(=O)NCCCCCCCCNC(=O)COc1cccc3c1C(=O)N(C1CCC(=O)NC1=O)C3=O)c1nnc(C)n1-2 (stereo partly drawn)
Metric: Population Mitotic Cells (%)
Numeric value: 42
//
Molecule: CN1CCN(c2cc(-c3ccccc3)nc(N)n2)CC1
Metric: Population Mitotic Cells (%)
Numeric value: 52
//
Molecule: CC(C)(C)c1cc(NC(=O)Nc2ccc(-c3cn4c(n3)sc3cc(OCCN5CCOCC5)ccc34)cc2)no1
Metric: Population Mitotic Cells (%)
Numeric value: 57
